test: Chromatographic hydrophobicity index, log D of the compound in pH 7.4 ammonium acetate buffer/acetonitrile gradient by HPLC analysis; format: physicochemical
Readout kind: CHI
I'd appreciate a reply containing only the number, no unit.

Some compounds with known CHI results, for comparison:
| Compound | CHI |
| --- | --- |
| CNC(=O)c1cc(C(=O)NCC[C@@H]2CNCCO2)cc2c1O[C@H](CF)[C@H]2c1ccccc1 | 2.18 |
| CNC(=O)c1cc(C(=O)NCCO)cc2c1O[C@H](C)[C@H]2c1ccccc1 | 3.12 |
| CNC(=O)c1cc(C(=O)NC2CCOC2)cc2c1O[C@H](CF)[C@H]2c1ccccc1 (some centres undefined) | 3.51 |
| CNC(=O)c1cc(C(=O)NCCOC)cc2c1O[C@H](C)[C@H]2c1ccccc1 | 3.81 |
| CNC(=O)c1cc(C(=O)N[C@@H]2C[C@H]2CO)cc2c1O[C@H](CF)[C@H]2c1ccccc1 | 3 |

So, `CNC(=O)c1cc(C(=O)NC2CC2)cc2c1O[C@H](C)[C@H]2c1ccccc1` ? Its CHI was 4.24

So, `CNC(=O)c1cc(C(=O)NC)c2c(c1)[C@H](c1ccccc1)[C@@H](CF)O2` ? Its CHI was 3.34

So, `CNC(=O)c1cc(C(=O)N[C@H]2C[C@H](O)C2)cc2c1O[C@H](CF)[C@H]2c1ccccc1` ? Its CHI was 2.92

So, `CNC(=O)c1cc(C(=O)NC)c2c(c1)[C@H](c1ccccc1)[C@@H](C)O2` ? Its CHI was 3.55

---

experiment: Clearance in Wistar Han rat at 1 mg/kg administered as iv infusion for 1 hr and measured up to 7 hrs by LC-MS/MS analysis; assay type: ADME, organism-based; conditions: in vivo
Items are presented alongside their recorded clearance.
Kindly provide the numeric value in mL/min/kg only, without the unit symbol.

Some compounds with known clearance results, for comparison:
| Smiles structure | Unit info | clearance |
| --- | --- | --- |
| CNC(=O)c1cc(C(=O)NC2CC2)cc2c1O[C@H](CO)[C@H]2c1ccccc1 | mL/min/kg | 74 |
| CNC(=O)c1cc(C(=O)NC2CC2)cc2c1O[C@H](C)[C@H]2c1ccccc1 | mL/min/kg | 90 |
| CNC(=O)c1cc(C(=O)N[C@@H]2C[C@H]2CO)cc2c1O[C@H](CF)[C@H]2c1ccccc1 | mL/min/kg | 98 |

So, `CNC(=O)c1cc(C(=O)NCCC[C@H]2OC[C@H](N)CO2)cc2c1O[C@H](CF)[C@H]2c1ccccc1` ? Its clearance was 73

---

test: Renal clearance in Beagle dog at 1 mg/kg, iv; assay type: ADME, organism-based, Canis lupus familiaris; details: in vivo
Readout kind: CL renal (mL/min/kg)
Kindly provide the numeric value in mL/min/kg only, without the unit symbol.

So, `CNC(=O)c1cc(C(=O)N[C@@H]2[C@@H]3COC[C@@H]32)cc2c1O[C@H](CF)[C@H]2c1ccccc1` ? Its CL renal was 0.3

---

Items are presented alongside their recorded Vd.
test: Volume of distribution at steady state in Wistar Han rat at 1 mg/kg administered as iv infusion for 1 hr and measured up to 7 hrs by LC-MS/MS analysis; type: ADME, organism-based; conditions: in vivo, read-out: Vdss
Write the numeric value and append its unit.

So, `CNC(=O)c1cc(C(=O)N[C@@H]2C[C@H]2CO)cc2c1O[C@H](CF)[C@H]2c1ccccc1` ? Its Vd was 1.7 L/kg

So, `CNC(=O)c1cc(C(=O)NCCC[C@H]2OC[C@H](N)CO2)cc2c1O[C@H](CF)[C@H]2c1ccccc1` ? Its Vd was 2.1 L/kg

So, `CNC(=O)c1cc(C(=O)NC2CC2)cc2c1O[C@H](CO)[C@H]2c1ccccc1` ? Its Vd was 1.4 L/kg

So, `CNC(=O)c1cc(C(=O)NC2CC2)cc2c1O[C@H](C)[C@H]2c1ccccc1` ? Its Vd was 2.3 L/kg
